Tested on: P450-Glo detection reaction (unspecific esterase and modified firefly-luciferase)
measurementDescription: P450-Glo detection reaction control (luciferin-EGE, esterase, luciferase, test compound, no CYP2D6)
appliedConditions: 50 µM test compound, difference to DMSO 1% control
We use 6% as the dividing line for P450-Glo Detection Reaction MEAN Diff. (inhibition of the detection reaction): on or above the line is Criterion met, below is Criterion not met.

[
  {
    "molecule": "COC1=C[C@]23CCN(C)[C@H](Cc4ccc(OC)c(O)c42)C3=CC1=O [Compound 20, (+)-Salutaridine]",
    "label": "Criterion not met"
  },
  {
    "molecule": "COC(=O)C1=CO[C@@H](C)[C@@H]2CN3CC[C@]4(C(=O)Nc5ccccc54)[C@@H]3C[C@H]12 [Compound 1, Pteropodine]",
    "label": "Criterion met"
  },
  {
    "molecule": "COc1ccc(/C=C\\c2cc(OC)c(OC)cc2CCN(C)C)cc1 [Compound 15, Des-N,O-dimethylarmepavine]",
    "label": "Criterion met"
  },
  {
    "molecule": "COC(=O)C1CC23C=CCN4CCC5(c6ccccc6NC15CC2)C43 (single isomer, unassigned; (-)) [Compound 10, (-)-Venalstonine]",
    "label": "Criterion not met"
  },
  {
    "molecule": "O=C(O)c1ccccc1-n1ccc2c([nH]c3ccccc32)c1=O [Compound 5, Secofascaplysic acid]",
    "label": "Criterion met"
  },
  {
    "molecule": "CCC1=CC2CN3CCc4c([nH]c5ccccc45)C(C(=O)OC)(C2)C13 (single isomer, unassigned; (+)) [Compound 7, (+)-Catharanthine]",
    "label": "Criterion met"
  }
]

###

Test system: P450-Glo detection reaction (unspecific esterase and modified firefly-luciferase)
measurementDescription: P450-Glo detection reaction control (luciferin-EGE, esterase, luciferase, test compound, no CYP2D6)
appliedConditions: 50 µM; one-way ANOVA, Dunnett's test vs DMSO control
measure: p < 0.05 (significant inhibition of the P450-Glo detection reaction)

[
  {
    "compound": "COC(=O)C1=CO[C@@H](C)[C@@H]2CN3CC[C@@]4(C(=O)Nc5ccccc54)[C@@H]3C[C@H]12",
    "assayTarget": "P450-Glo detection reaction (unspecific esterase and modified firefly-luciferase)",
    "valueObserved": "Yes"
  },
  {
    "compound": "COc1ccc(CC2c3cc(O)c(OC)cc3CCN2C)cc1O (single isomer, unassigned; (+)) [Compound 19, (+)-Reticuline]",
    "assayTarget": "P450-Glo detection reaction (unspecific esterase and modified firefly-luciferase)",
    "valueObserved": "No"
  },
  {
    "compound": "COC(=O)N1c2ccccc2C23C4CN5CCCC6(CCC12C(O)(C6)C4=O)C53 (single isomer, unassigned; (-)) [Compound 16, (-)-Kopsine]",
    "assayTarget": "P450-Glo detection reaction (unspecific esterase and modified firefly-luciferase)",
    "valueObserved": "Yes"
  },
  {
    "compound": "COc1ccc(C[C@@H]2NCCc3cc(OC)c(O)cc32)cc1O [Compound 9, (S)-Norreticuline]",
    "assayTarget": "P450-Glo detection reaction (unspecific esterase and modified firefly-luciferase)",
    "valueObserved": "Yes"
  },
  {
    "compound": "COc1cc2c(cc1O)-c1c(O)c(OC)cc3c1[C@H](C2)N(C)CC3",
    "assayTarget": "P450-Glo detection reaction (unspecific esterase and modified firefly-luciferase)",
    "valueObserved": "Yes"
  },
  {
    "compound": "CC=C1C2CCN3CCC4(C(=C2C(=O)OC)Nc2ccccc24)C13 (single isomer, unassigned; (+)) [Compound 17, (+)-Condylocarpine]",
    "assayTarget": "P450-Glo detection reaction (unspecific esterase and modified firefly-luciferase)",
    "valueObserved": "Yes"
  },
  {
    "compound": "O=C(O)c1ccccc1-n1ccc2c([nH]c3ccccc32)c1=O",
    "assayTarget": "P450-Glo detection reaction (unspecific esterase and modified firefly-luciferase)",
    "valueObserved": "Yes"
  },
  {
    "compound": "COC(=O)C1=CO[C@@H](C)[C@H]2CN3CC[C@@]4(C(=O)Nc5ccccc54)[C@@H]3C[C@H]12",
    "assayTarget": "P450-Glo detection reaction (unspecific esterase and modified firefly-luciferase)",
    "valueObserved": "No"
  },
  {
    "compound": "COC(=O)C1C(O)CCC2C[N+]3(C)CCc4c([nH]c5cccc(OC)c45)C3CC21 (centres unmarked) [Compound 8, Venenatine methiodide]",
    "assayTarget": "P450-Glo detection reaction (unspecific esterase and modified firefly-luciferase)",
    "valueObserved": "Yes"
  },
  {
    "compound": "O=C(NCCCCNCCCNC(=O)c1ccc(O)c(O)c1)c1ccc(O)c(O)c1",
    "assayTarget": "P450-Glo detection reaction (unspecific esterase and modified firefly-luciferase)",
    "valueObserved": "Yes"
  },
  {
    "compound": "COc1cc2c(cc1OC)C1Cc3cc(O)c(O)cc3CN1CC2 (centres unmarked)",
    "assayTarget": "P450-Glo detection reaction (unspecific esterase and modified firefly-luciferase)",
    "valueObserved": "Yes"
  }
]
